B1: TPR t1 (parent)
chain: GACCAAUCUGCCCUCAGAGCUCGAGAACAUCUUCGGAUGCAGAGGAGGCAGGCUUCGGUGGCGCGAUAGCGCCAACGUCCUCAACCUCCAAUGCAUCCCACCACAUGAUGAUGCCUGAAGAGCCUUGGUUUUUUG

- Variants of: B1
- Assay overview: polymerase ribozyme fitness, log enrichment relative to wild type (log ratio); higher = more active; in vitro selection for triplet polymerase activity
Give polymerase ribozyme fitness (log ratio) for every item shown.
Please respond with just the number, no unit label.

G45U C53A C72U C89G has a reported polymerase ribozyme fitness (log ratio) of -1.72

The recorded polymerase ribozyme fitness (log ratio) for entry C64A C70G A95U G110C C114U equals -5.6

Record summary for C56U C86U G117A : reported polymerase ribozyme fitness (log ratio) = -1.37

Looking up A46G G113U , I found its polymerase ribozyme fitness (log ratio) recorded as -2.95

Lab note: C20U G52A C124U gave polymerase ribozyme fitness (log ratio) of 0.255

// field: polymerase ribozyme fitness (log ratio); key: C28U C49U ; value = -3.27

Sample A18G C20A C79U G117C ; polymerase ribozyme fitness (log ratio) observed: -3.24

Reported polymerase ribozyme fitness (log ratio) for G44U C123U was 0.929

The measured polymerase ribozyme fitness (log ratio) associated with C11G U87G C123G reads 1.19

The value of polymerase ribozyme fitness (log ratio) measured for the variant C8G G17U turned out to be -0.274

The measured polymerase ribozyme fitness (log ratio) associated with C62U G110C C124U U125A reads -5.16

polymerase ribozyme fitness (log ratio) reading for A5U G63U G65C C80U C85U A95G C97U C115U : -6.48

The variant listed as C13U G45U G60C C82U shows polymerase ribozyme fitness (log ratio) equal to -0.444

# polymerase ribozyme fitness (log ratio) (variant: A16C C20G U59G U106A G113A ) is -5.4

The measured polymerase ribozyme fitness (log ratio) associated with U59C U78G reads -0.0388

polymerase ribozyme fitness (log ratio) reading for C11U A27G C76G C80A C85A U112G : -0.749

# polymerase ribozyme fitness (log ratio) of C56U A90G U132A = 0.308

Note to self: polymerase ribozyme fitness (log ratio) recorded for U21G A121U was 0.0323

For this variant ( G63A U78G ), measured polymerase ribozyme fitness (log ratio) is -2.6

// recorded polymerase ribozyme fitness (log ratio) for C13G G17U C64U G93C : -4.19

Recorded result, U21G A37U C80A A121G , polymerase ribozyme fitness (log ratio): -3.51

# variant U109G A119G G135C ; its polymerase ribozyme fitness (log ratio) = -3.19

Entry G19U G58C — recorded polymerase ribozyme fitness (log ratio) = -4.22

Item: C56U G61U G93A A111U U116C | polymerase ribozyme fitness (log ratio): -4.78

Lab book: polymerase ribozyme fitness (log ratio) of C72A G117A noted as -1.19

// field: polymerase ribozyme fitness (log ratio); key: A41U G57U ; value = -1.23

Recorded result, C8A A37C C101G , polymerase ribozyme fitness (log ratio): -1.22

According to the records, this variant A27U G36C displays polymerase ribozyme fitness (log ratio) of -3.53

get_value(item= G35A C53U G57U G69A A83U C115U , readout=polymerase ribozyme fitness (log ratio)) returns -6.36

Entry U87A G120U ; polymerase ribozyme fitness (log ratio) = 0.227

# polymerase ribozyme fitness (log ratio) of C82G G93C U129G = -2.84

Consider C20U A46C C72G . Its measured polymerase ribozyme fitness (log ratio) is -3.17

// polymerase ribozyme fitness (log ratio) value for U54A A119G G135U : 0.414

Kindly note the recorded polymerase ribozyme fitness (log ratio) for C8G G19U G48A A50U U54G U96A C114A , which is 0.218

For record C15G C98U the listed polymerase ribozyme fitness (log ratio) is -4.22

C12G A46G G128C U131A has a reported polymerase ribozyme fitness (log ratio) of -2.32

// U32A G44U U55A : polymerase ribozyme fitness (log ratio) value = -5.23

For record C13G G69A U132A the listed polymerase ribozyme fitness (log ratio) is -3.7

get_value(item= C34A C40U C85G , readout=polymerase ribozyme fitness (log ratio)) returns -4.94

Lookup result for G63A C72G C104G G120A G122U ; measured polymerase ribozyme fitness (log ratio): -6.38
